Molecular target: Short transient receptor potential channel 6 (Mus musculus) (UniProt Q61143)
Sequence (Q61143 whole entry, looked up): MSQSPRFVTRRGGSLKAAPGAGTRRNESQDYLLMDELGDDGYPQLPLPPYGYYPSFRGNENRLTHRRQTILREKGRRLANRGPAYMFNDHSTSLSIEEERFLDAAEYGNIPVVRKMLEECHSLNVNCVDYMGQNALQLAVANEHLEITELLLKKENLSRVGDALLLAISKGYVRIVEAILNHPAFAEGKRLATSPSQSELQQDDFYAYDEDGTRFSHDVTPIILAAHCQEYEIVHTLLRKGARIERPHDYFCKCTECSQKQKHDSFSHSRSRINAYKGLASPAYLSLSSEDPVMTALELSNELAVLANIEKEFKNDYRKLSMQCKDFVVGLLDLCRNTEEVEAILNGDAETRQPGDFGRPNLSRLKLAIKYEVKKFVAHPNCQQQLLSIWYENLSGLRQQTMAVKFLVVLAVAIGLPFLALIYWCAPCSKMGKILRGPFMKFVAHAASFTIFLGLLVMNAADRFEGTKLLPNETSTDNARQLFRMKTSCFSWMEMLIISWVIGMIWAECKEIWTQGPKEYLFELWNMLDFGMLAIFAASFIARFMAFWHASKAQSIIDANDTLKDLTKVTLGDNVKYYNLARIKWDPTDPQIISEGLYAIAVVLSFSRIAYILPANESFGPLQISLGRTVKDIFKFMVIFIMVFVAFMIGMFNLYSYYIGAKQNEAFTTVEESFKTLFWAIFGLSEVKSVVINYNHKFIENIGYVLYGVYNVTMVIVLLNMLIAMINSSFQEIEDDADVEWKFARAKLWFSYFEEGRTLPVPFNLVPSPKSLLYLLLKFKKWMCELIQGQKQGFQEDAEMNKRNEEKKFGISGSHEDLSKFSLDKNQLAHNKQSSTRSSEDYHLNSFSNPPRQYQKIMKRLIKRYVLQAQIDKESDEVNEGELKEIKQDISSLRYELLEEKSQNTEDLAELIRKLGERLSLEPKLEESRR
Experiment: mouse TRPC6 channel inhibitors, primary screen, cell-based, HEK293, membrane potential dye (AID 2553)
Details: ACh-evoked depolarization, at 10 µM
The whole screen tested about 310,000 compounds, of which about 3,300 (1.1%) were called active.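 How the source made its calls: active means B-score under library mean minus 3 SD, initial fluorescence not abnormally high, positive integrated signal ratio; inactive means the rest.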 Many of the other results were omitted from the sample, so actives are more common in it than they were.
I would appreciate it if you answered using one of these outcomes: true for active, false for inactive

Kindly provide the recorded test outcome for the following compound: COc1ccc(C(=O)N/N=c2\oc3ccccc3cc2C(N)=O)cc1
false

Also need CCCCN(C)CCCNC(=O)c1cc(-c2cccs2)nc2ccccc12 , thanks.
true

Next record, please: Cc1cc(OCC(=O)N(C)c2c(N)n(Cc3ccccc3)c(=O)[nH]c2=O)c(C(C)C)cc1Cl
false

Repeat with C[C@H](NC(=O)OC(C)(C)C)c1nnc(SCC(=O)Nc2ccc(Br)cc2)o1
true

How about Cc1ccc2nc3c(cc(C(=O)NCCc4ccccc4)c(=N)n3CC3CCCO3)c(=O)n2c1 (stereo not drawn) ?
false

Same again, this time with COc1ccc(C)cc1S(=O)(=O)Nc1cc2c3c(c1)CCC(=O)N3CCC2
false

Param item: CCn1c(C)cc(=O)cc1-c1ccc(Cl)cc1
false

Also need CC(C)c1ccc(OCC(O)Cn2cnc3ccccc32)cc1 (stereo not drawn) , thanks.
true

// next record COc1cccc(NC(=O)Nc2nnc(N3CCCCC3C)s2)c1 (stereo not drawn)
false

Likewise for CCc1ccccc1NC(=O)CSc1nnc([C@@H](NC(=O)OC(C)(C)C)C(C)C)o1 ?
false

Now consider COc1c(C=O)c(CCN(C)C(=O)c2ccc(F)cc2)cc2c1OCO2 .
false

Another compound: CCN1C(=S)N[C@@H](CCc2ccccc2)[C@H](C(=O)OC)[C@H]1C
false

Now the compound CCC(C)(C)NC(=O)CN(C(=O)CCC(=O)Nc1nccs1)c1ccc2c(c1)OCO2
true

How about COc1ccc(Cn2c(=O)cc(C)[nH]c2=S)cc1 ?
false

Continue with N#Cc1cccc(CSc2ncnc(N)n2)c1
false

// next record CCc1ccc(N2CC(C(=O)Nc3ccc(S(=O)(=O)Nc4nccs4)cc3)CC2=O)cc1 (stereo not drawn)
false

What do you have for O=C1N(c2ccc(Cl)cc2)C(c2ccc(Cl)cc2)N2CCCN12 (stereo not drawn) ?
false

Then Cc1ccc(S(=O)(=O)C2(S(=O)(=O)c3ccc(C)cc3)CCCC2)cc1 ?
false

Try Cn1c(=O)c2c(nc(NCCNC(=O)c3ccco3)n2Cc2ccccc2F)n(C)c1=O next.
false

What would you report for NC(=O)c1cc2ccccc2o/c1=N/NC(=O)c1cccc(F)c1 ?
false

Now try Cc1ccccc1NC(=O)CNc1ccccc1N1CCCCC1 .
true

Another: O=C(NCCN1CCOCC1)c1cc(-c2cccs2)nc2ccccc12
false

What about Cc1cc2c(=O)n(CC(=O)NCC(=O)Nc3ccc(C(C)C)cc3)cnc2s1 ?
false

Now this one: Cc1ccccc1NC(=O)Nc1ccccc1N1CCCCC1
false

What do you get for O=C(N/N=C\c1cccnc1)c1cc(-c2ccccc2)nc2c(Cl)cccc12 ?
false

Same again, this time with CCN(CC)c1ccc2cc(C(N)=O)/c(=N\NC(=O)c3ccncc3)oc2c1
true

Can you handle CCCCn1c(=O)c(C(C)=O)c(O)c2ccccc21 next?
false

Entry COc1ccccc1C1SCCN1C(=O)c1ccc([N+](=O)[O-])cc1 (stereo not drawn) please
true

Again, but for O=S(=O)(Nc1cccc(Oc2ccc(Cl)cc2)n1)c1ccc(F)cc1
false

Another: CCC(C)(C)NC(=O)CN(C(=O)CCC(=O)Nc1cc(C)ccn1)c1ccc2c(c1)OCCO2
false

Field entry: O=C(CNCCC1=CCCCC1)Nc1ccccc1N1CCCCCC1
false

// same read-out, input: CCc1ccc(C(=O)NNC(=O)C2CCN(c3ncnc4sc(C)c(C)c34)CC2)cc1
false

What about this compound? CCN(CC)S(=O)(=O)c1ccc(N2CC(C(=O)NCc3cccnc3)CC2=O)cc1 (stereo not drawn)
true

Another compound to look at: COc1ccc(C(=O)N2CCc3cc(OC)c(OC)cc3C2c2cccc([N+](=O)[O-])c2)cc1 (stereo not drawn)
false

Same again, this time with CN1CC(c2ccccc2)C2(COc3ccccc3C2=O)C12C(=O)Nc1ccccc12 (stereo not drawn)
false

Also, CC1CC(C)CN(CC(=O)N2c3ccccc3CCc3ccccc32)C1 (stereo not drawn) please.
false

What about this compound? CC(=O)OC(COc1ccc(F)cc1)Cn1cnc2ccccc21 (stereo not drawn)
false

Consider next the compound CCN(CC)CCNc1ccc(Cl)cc1[N+](=O)[O-] in the same way.
false

Now try CCc1ccccc1NC(=O)CSc1nnc([C@@H](NC(=O)OC(C)(C)C)C(C)CC)o1 (stereo partly drawn) .
false

Can you check COC(=O)c1cc(-c2cccs2)nc2ccccc12 next?
false

Item: O=C(CN(C(=O)CCC(=O)Nc1nccs1)c1ccc(F)cc1)NCc1ccc2c(c1)OCO2
false

Query CCN(CC)CCn1c2ccc(Cl)cc2c2nc(C)sc21 next
true

What about Cc1ccc(C(O)P(=O)(OC(C)C)c2ccc(N(C)C)cc2)cc1 (stereo not drawn) ?
false
